Data provenance is PubChem BioAssay AID1963827.

- Tested on: 994946-033-R-J1-PDC complex spheroid viability
- assay: Anticancer human tumor 994946-033-R-J1-PDC patient-derived melanoma cell line growth inhibition [POLQ]
- particulars: curve of first compound; second compound 0.316 µM
value.kind: IC50

# molecule, IC50
rows = [
    ("CC(=O)O[C@H]1C(=O)[C@@]2(C)[C@H]([C@H](OC(=O)c3ccccc3)[C@]3(O)C[C@H](OC(=O)[C@H](O)[C@@H](NC(=O)c4ccccc4)c4ccccc4)C(C)=C1C3(C)C)[C@]1(OC(C)=O)CO[C@@H]1C[C@@H]2O + Nc1ccc(C#CCN(C(=O)Cc2ncc(C(F)(F)F)cc2C(F)(F)F)c2ccc(F)cc2)nn1", "< 0.00949 µM"),
    ("CNCc1ccc(-c2[nH]c3cc(F)cc4c3c2CCNC4=O)cc1 + Nc1ccc(C#CCN(C(=O)Cc2ncc(C(F)(F)F)cc2C(F)(F)F)c2ccc(F)cc2)nn1", "> 10 µM"),
    ("CNCc1ccc(-c2[nH]c3cc(F)cc4c3c2CCNC4=O)cc1 + Cc1cccc(N(C)C(=O)C2C(O)CCN2c2nc(C)cc(C(F)(F)F)c2C#N)c1", "> 10 µM"),
    ("COc1cc2cc(C(=O)CCC(=O)O)sc2cc1OC + Cc1cccc(N(C)C(=O)C2C(O)CCN2c2nc(C)cc(C(F)(F)F)c2C#N)c1", "> 10 µM"),
]

IC50 measured on C=CC(=O)N1CCN(c2nc(=O)n(-c3c(C)ccnc3C(C)C)c3nc(-c4c(O)cccc4F)c(F)cc23)C(C)C1 (stereo not given) + Nc1ccc(C#CCN(C(=O)Cc2ncc(C(F)(F)F)cc2C(F)(F)F)c2ccc(F)cc2)nn1 = > 10 µM

====

- System: 994946-033-R-J1-PDC complex spheroid viability
- assay: Anticancer human tumor 994946-033-R-J1-PDC cell line growth inhibition [POLQ]; active = viability on the fitted dose curve at most 10% of control; inactive = the rest;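 further: spheroids exposed to drugs for 7 days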
- particulars: second compound 10 µM; first compound 0.316 µM
Choose one outcome from this list and give only that: True = active, False = inactive

Examples with answers:
# compound, class.name
records = [
    ("COc1cc(C2c3cc4c(cc3C(OC3OC5COC(C)OC5C(O)C3O)C3COC(=O)C23)OCO4)cc(OC)c1O (stereo not drawn) + COC1C(OC(N)=O)C(O)C(Oc2ccc3c(O)c(NC(=O)c4ccc(O)c(CC=C(C)C)c4)c(=O)oc3c2C)OC1(C)C", "False"),
    ("CCc1c2c(nc3ccc(O)cc13)-c1cc3c(c(=O)n1C2)COC(=O)[C@]3(O)CC + COC1C(OC(N)=O)C(O)C(Oc2ccc3c(O)c(NC(=O)c4ccc(O)c(CC=C(C)C)c4)c(=O)oc3c2C)OC1(C)C", "True"),
]

With those in mind, consider the next compound.
Answer briefly: the call reported for COc1cc(C2c3cc4c(cc3C(OC3OC5COC(C)OC5C(O)C3O)C3COC(=O)C23)OCO4)cc(OC)c1O (stereo not drawn) + Cc1cccc(N(C)C(=O)C2C(O)CCN2c2nc(C)cc(C(F)(F)F)c2C#N)c1 in this assay. False

====

Measured viability, T/C by item
- Test system: 994946-033-R-J1-PDC complex spheroid viability
- assay: Anticancer human tumor 994946-033-R-J1-PDC cell line growth inhibition [POLQ];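 further: spheroids exposed to drugs for 7 days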;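 on viability, T/C: 100% = DMSO vehicle treated spheroids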
- particulars: second compound 1 µM; first compound 0.0316 µM; stronger effect = lower value
The reply should be a number in %, with the unit left off.

# molecule, viability, T/C [%]
records = [
    ("O=c1[nH]cc(F)c(=O)[nH]1 + COC1C(OC(N)=O)C(O)C(Oc2ccc3c(O)c(NC(=O)c4ccc(O)c(CC=C(C)C)c4)c(=O)oc3c2C)OC1(C)C", 87.6),
    ("CC(C)n1c(=O)n(C)c2cnc3cc(F)c(-c4ccc(OCCCN5CCCCC5)nc4)cc3c21 + COC1C(OC(N)=O)C(O)C(Oc2ccc3c(O)c(NC(=O)c4ccc(O)c(CC=C(C)C)c4)c(=O)oc3c2C)OC1(C)C", 86.7),
    ("CCc1cc2c(N3CCc4c(cc(Cn5ccnc5)cc4-c4cn(C)nc4C(F)(F)F)C3=O)cc(C)nc2c(OC)n1 + COC1C(OC(N)=O)C(O)C(Oc2ccc3c(O)c(NC(=O)c4ccc(O)c(CC=C(C)C)c4)c(=O)oc3c2C)OC1(C)C", 100),
    ("C=CCn1c(=O)c2cnc(Nc3ccc(N4CCN(C)CC4)cc3)nc2n1-c1cccc(C(C)(C)O)n1 + COC1C(OC(N)=O)C(O)C(Oc2ccc3c(O)c(NC(=O)c4ccc(O)c(CC=C(C)C)c4)c(=O)oc3c2C)OC1(C)C", 94.9),
    ("CC[C@@]1(O)C(=O)OCc2c1cc1n(c2=O)Cc2cc3c(CN(C)C)c(O)ccc3nc2-1 + Nc1ccc(C#CCN(C(=O)Cc2ncc(C(F)(F)F)cc2C(F)(F)F)c2ccc(F)cc2)nn1", 33.7),
]

Looking up COc1ccc([C@@H](O)c2cc(-c3ncnc4cc(N5CCOCC5)ccc34)c(F)cc2Cl)nn1 + Cc1cccc(N(C)C(=O)C2C(O)CCN2c2nc(C)cc(C(F)(F)F)c2C#N)c1 , I see its viability, T/C listed as 104

// sample CCc1cc2c(N3CCc4c(cc(Cn5ccnc5)cc4-c4cn(C)nc4C(F)(F)F)C3=O)cc(C)nc2c(OC)n1 + Nc1ccc(C#CCN(C(=O)Cc2ncc(C(F)(F)F)cc2C(F)(F)F)c2ccc(F)cc2)nn1 , its viability, T/C was 98.6

Input C#Cc1c(F)ccc2cc(O)cc(-c3ncc4c(N5CC6CCC(C5)N6)nc(OCC56CCCN5CC(F)C6)nc4c3F)c12 (stereo not given) + Nc1ccc(C#CCN(C(=O)Cc2ncc(C(F)(F)F)cc2C(F)(F)F)c2ccc(F)cc2)nn1 . Output viability, T/C: 80.6

Notebook: CC(C)n1c(=O)n(C)c2cnc3cc(F)c(-c4ccc(OCCCN5CCCCC5)nc4)cc3c21 + Nc1ccc(C#CCN(C(=O)Cc2ncc(C(F)(F)F)cc2C(F)(F)F)c2ccc(F)cc2)nn1 , viability, T/C read as 76.5

In plain terms, COc1cccc(OCCCN)c1-c1cc(Nc2cnc(C#N)cn2)n[nH]1 + COC1C(OC(N)=O)C(O)C(Oc2ccc3c(O)c(NC(=O)c4ccc(O)c(CC=C(C)C)c4)c(=O)oc3c2C)OC1(C)C has a documented viability, T/C of 25.7
